Catalogue of binders with associated log10(koff)
Measured target: T1, human CD3e/g antigen (ACRO, catalog number CDG-H52W5) (human, UniProt P07766 23-126; P09693 23-116)
T1 construct: Bought reagent used as the Biacore analyte; also called hCD3e/g
Experiment description: SPR (Biacore 8K), antibody captured via anti-human Fc
All values: log10 koff [s⁻¹].

# annotated cases, reported log10(koff) shown
Binder	Recorded value
hAb007-24 (antibody, V domains shown, Humanized; constant regions not specified) VH: QVQLVQSGAEVKKPGASVKVSCKASGSTFTDNYIHWVRQAPGQRLEWIGWIYPGSVNIKYNEKFKDRVTITADTSASTAYMELSSLRSEDTAVYYCARDISRYYFDYWGQGTTVTVSS VL: DIVMTQSPDSLAVSLGERATMNCKSSQSLLNSRTRKNYLAWYQQKPGQPPKLLIYWASTRESGVPDRFTGSGSGTDFTLTISSLQAEDVAVYYCKQSFILRTFGGGTKLEIK	-2.59
hAb001-20 (antibody, V domains shown, Humanized; constant regions not specified) VH: QVQLVQSGAEVKKPGASVKVSCKASGYSFTNYYMHWVRQAPGQRLEWMGWTYPGNNNIKYNEKFKGRVTITRDTSASTAYMELSSLRSEDTAVYYCARDGYGYYFFDYWGQGTLVTVSS VL: DIVMTQSPDSLAVSLGERATMSCKSSQSLLNNRTRKNYLAWYQQKPGQPPKLLIYWASTRESGVPDRFTGSGSGTDFTLTISSLQAEDVAVYYCKQSYTLRTFGGGTKLEIK	-2.52
hAb008-26 (antibody, V domains shown, Humanized; constant regions not specified) VH: QVQLVQSGAEVKKPGASVKVSCKASGYTFTDYTVNWVRQAPGQRLEWIGYINPFNSYTKYNQKFKDRATITADTSASTAYMELSSLRSEDTAVYFCANSVSTYWGQGTTVTVSS VL: DVVMTQSPLSLPVTLGQPASISCKSSQSLLDSDGKTYLNWLQQRPGQSPRRLIQLVSKLNSGVPDRFSGSGSGTDFTLKISRVEAEDVGVFYCWQGTHFPRTFGGGTKLEIK	-2.32
hAb007-22 (antibody, V domains shown, Humanized; constant regions not specified) VH: QVQLVQSGAEVKKPGASVKVSCKASGSTFTDNYIHWVRQAPGQRLEWIGWIYPGSVNIKYNEKFKDRVTITADTSASTAYMELSSLRSEDTAVYYCARDISRYYFDYWGQGTTVTVSS VL: DIVMTQSPDSLAVSLGERATINCKSSQSLLNSRTRKNYLAWYQQKPGQPPKLLIYWASTRESGVPDRFTGSGSGTDFTLTISSLQAEDVAVYYCKQSFILRTFGGGTKLEIK	-2.23
CAb007 (antibody, V domains shown, Chimeric: mouse variable regions linked to human light and heavy constant regions; constant regions not specified) VH: QVQLQQSGPELVKPGASVKISCKASGSTFTDNYIHWVKQRPGQGLEWIGWIYPGSVNIKYNEKFKDKATLTADTSSTTAYMQLSSLSSEDSAIYYCARDISRYYFDYWGQGTTLTVSS VL: DIVMSQSPSSLAVSAGERVTMNCKSSQSLLNSRTRKNYLAWYQQKPGQSPKLLIYWASTRESGVPDRFTGSGSGTDFTLTISSVQAEDLAVYYCKQSFILRTFGGGTKLAIK	-2.27
hAb001-32 (antibody, V domains shown, Humanized; constant regions not specified) VH: QVQLVQSGAEVKKPGASVKVSCKASGYSFTNYYMHWVKQAPGQRLEWIGWTYPGNNNIKYNEKFKGRATITADTSASTAYMELSSLRSEDTAVYYCARDGYGYYFFDYWGQGTLVTVSS VL: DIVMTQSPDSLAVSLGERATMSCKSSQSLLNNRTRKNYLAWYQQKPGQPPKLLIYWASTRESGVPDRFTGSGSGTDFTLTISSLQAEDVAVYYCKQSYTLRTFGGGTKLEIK	-2.30
hAb007-25 (antibody, V domains shown, Humanized; constant regions not specified) VH: QVQLVQSGAEVKKPGASVKVSCKASGSTFTDNYIHWVRQAPGQRLEWIGWIYPGSVNIKYNEKFKDRATITADTSASTAYMELSSLRSEDTAVYYCARDISRYYFDYWGQGTTVTVSS VL: DIVMTQSPDSLAVSLGERATINCKSSQSLLNSRTRKNYLAWYQQKPGQPPKLLIYWASTRESGVPDRFSGSGSGTDFTLTISSLQAEDVAVYYCKQSFILRTFGGGTKLEIK	-2.37
hAb007-19 (antibody, V domains shown, Humanized; constant regions not specified) VH: QVQLVQSGAEVKKPGASVKVSCKASGSTFTDNYIHWVRQAPGQRLEWMGWIYPGSVNIKYNEKFKDRVTITRDTSASTAYMELSSLRSEDTAVYYCARDISRYYFDYWGQGTTVTVSS VL: DIVMTQSPDSLAVSLGERATMNCKSSQSLLNSRTRKNYLAWYQQKPGQPPKLLIYWASTRESGVPDRFSGSGSGTDFTLTISSLQAEDVAVYYCKQSFILRTFGGGTKLEIK	-2.50

Incoming: Fill in: log10(koff) of hAb001-19 (antibody, V domains shown, Humanized; constant regions not specified) VH: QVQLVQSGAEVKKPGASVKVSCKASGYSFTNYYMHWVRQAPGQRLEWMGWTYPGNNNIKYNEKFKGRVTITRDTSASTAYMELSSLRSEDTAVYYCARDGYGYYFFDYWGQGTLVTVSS VL: DIVMTQSPDSLAVSLGERATMSCKSSQSLLNNRTRKNYLAWYQQKPGQPPKLLIYWASTRESGVPDRFSGSGSGTDFTLTISSLQAEDVAVYYCKQSYTLRTFGGGTKLEIK is ___
Outgoing: -1.45

Incoming: Look at this binder and give its reported log10(koff). hAb001-26 (antibody, V domains shown, Humanized; constant regions not specified) VH: QVQLVQSGAEVKKPGASVKVSCKASGYSFTNYYMHWVRQAPGQRLEWIGWTYPGNNNIKYNEKFKGRATITADTSASTAYMELSSLRSEDTAVYYCARDGYGYYFFDYWGQGTLVTVSS VL: DIVMTQSPDSLAVSLGERATINCKSSQSLLNNRTRKNYLAWYQQKPGQPPKLLIYWASTRESGVPDRFTGSGSGTDFTLTISSLQAEDVAVYYCKQSYTLRTFGGGTKLEIK
Outgoing: -2.17
